Values from patent US20210386738A1

system: lymphoma cell line DB; test: Serial dilutions: fixed ABT-199 concentration with Compound A titration, six-day cell proliferation; assay type: cell-based; settings: 144 h, with fixed ABT-199 57 nM, six days, read-out: Compound A required for dEC50
pEC50: −log10 of the molar value.
endpoint_name: pEC50

{"columns": ["structure_string", "endpoint_name", "numeric_value"],
 "data": [
  ["O=C(NC[C@H](O)CN1CCc2ccccc2C1)c1ccnc(NC2CCC2)c1", "pEC50", 5.27]
]}

----------
This section presents compounds with their documented IC50 values.
system: lymphoma cell line WSU-FSCCL; assay: Standard 6-day growth-death assay, WSU-FSCCL; type: cell-based; conditions: 144 h, single agent or fixed 1:1 combination, average of n=2, read-out: gIC50

{"columns": ["compound", "units", "IC50"],
 "data": [
  ["O=C(NC[C@H](O)CN1CCc2ccccc2C1)c1ccnc(NC2CCC2)c1 [Compound A]", "nM", 388],
  ["CC1(C)CCC(CN2CCN(c3ccc(C(=O)NS(=O)(=O)c4ccc(NCC5CCOCC5)c([N+](=O)[O-])c4)c(Oc4cnc5[nH]ccc5c4)c3)CC2)=C(c2ccc(Cl)cc2)C1 [ABT-199, venetoclax, reference compound]", "nM", 238]
]}

----------
system: lymphoma cell line U-2932; experiment: Standard 6-day growth-death assay, U-2932; assay type: cell-based; conditions: Homo sapiens, U2932, 144 h, single agent or fixed 1:1 combination, average of n=2, read-out: gIC50
This section presents molecules with their documented IC50 values.

{"columns": ["molecule", "units", "IC50"],
 "data": [
  ["O=C(NC[C@H](O)CN1CCc2ccccc2C1)c1ccnc(NC2CCC2)c1", "nM", 281],
  ["CC1(C)CCC(CN2CCN(c3ccc(C(=O)NS(=O)(=O)c4ccc(NCC5CCOCC5)c([N+](=O)[O-])c4)c(Oc4cnc5[nH]ccc5c4)c3)CC2)=C(c2ccc(Cl)cc2)C1 [ABT-199, venetoclax, reference compound]", "nM", 113]
]}

----------
System: lymphoma cell line DB
Test: Serial dilutions: fixed ABT-199 concentration with Compound A titration, six-day cell proliferation
Format: cell-based
Conditions: 144 h, with fixed ABT-199 115 nM, six days, read-out: Compound A required for dEC50
Protocol: Serial dilutions were performed for the combination to ascertain the change in gIC50, gIC100 and dEC50 when the inhibitors are used together in a PRMT5 inhibitor cell proliferation. […] Cell growth was measured using CellTiter-Glo (Promega) and luminescence signal was detected with a BioTek Synergy Neo microplate reader. A plate of untreated cells was read at the time of compound/biologic addition to determine the T0 value representing the starting number of cells. […]
pEC50: −log10 of the molar value.

{"columns": ["structure_string", "pEC50"],
 "data": [
  ["O=C(NC[C@H](O)CN1CCc2ccccc2C1)c1ccnc(NC2CCC2)c1", 5.33]
]}

----------
test system: lymphoma cell line DB; assay: Serial dilutions: fixed ABT-199 concentration with Compound A titration, six-day cell proliferation; type: cell-based; details: 144 h, with fixed ABT-199 3666 nM, six days, read-out: Compound A required for dEC50
pEC50: −log10 of the molar value.
endpoint_name: pEC50

{"columns": ["compound", "numeric_value"],
 "data": [
  ["O=C(NC[C@H](O)CN1CCc2ccccc2C1)c1ccnc(NC2CCC2)c1 [Compound A]", 5.65]
]}
